These entries and their values trace back to patent US10208089B2.

tested_system: C5 (Homo sapiens, UniProt P01031)
Sequence (P01031 19-1676): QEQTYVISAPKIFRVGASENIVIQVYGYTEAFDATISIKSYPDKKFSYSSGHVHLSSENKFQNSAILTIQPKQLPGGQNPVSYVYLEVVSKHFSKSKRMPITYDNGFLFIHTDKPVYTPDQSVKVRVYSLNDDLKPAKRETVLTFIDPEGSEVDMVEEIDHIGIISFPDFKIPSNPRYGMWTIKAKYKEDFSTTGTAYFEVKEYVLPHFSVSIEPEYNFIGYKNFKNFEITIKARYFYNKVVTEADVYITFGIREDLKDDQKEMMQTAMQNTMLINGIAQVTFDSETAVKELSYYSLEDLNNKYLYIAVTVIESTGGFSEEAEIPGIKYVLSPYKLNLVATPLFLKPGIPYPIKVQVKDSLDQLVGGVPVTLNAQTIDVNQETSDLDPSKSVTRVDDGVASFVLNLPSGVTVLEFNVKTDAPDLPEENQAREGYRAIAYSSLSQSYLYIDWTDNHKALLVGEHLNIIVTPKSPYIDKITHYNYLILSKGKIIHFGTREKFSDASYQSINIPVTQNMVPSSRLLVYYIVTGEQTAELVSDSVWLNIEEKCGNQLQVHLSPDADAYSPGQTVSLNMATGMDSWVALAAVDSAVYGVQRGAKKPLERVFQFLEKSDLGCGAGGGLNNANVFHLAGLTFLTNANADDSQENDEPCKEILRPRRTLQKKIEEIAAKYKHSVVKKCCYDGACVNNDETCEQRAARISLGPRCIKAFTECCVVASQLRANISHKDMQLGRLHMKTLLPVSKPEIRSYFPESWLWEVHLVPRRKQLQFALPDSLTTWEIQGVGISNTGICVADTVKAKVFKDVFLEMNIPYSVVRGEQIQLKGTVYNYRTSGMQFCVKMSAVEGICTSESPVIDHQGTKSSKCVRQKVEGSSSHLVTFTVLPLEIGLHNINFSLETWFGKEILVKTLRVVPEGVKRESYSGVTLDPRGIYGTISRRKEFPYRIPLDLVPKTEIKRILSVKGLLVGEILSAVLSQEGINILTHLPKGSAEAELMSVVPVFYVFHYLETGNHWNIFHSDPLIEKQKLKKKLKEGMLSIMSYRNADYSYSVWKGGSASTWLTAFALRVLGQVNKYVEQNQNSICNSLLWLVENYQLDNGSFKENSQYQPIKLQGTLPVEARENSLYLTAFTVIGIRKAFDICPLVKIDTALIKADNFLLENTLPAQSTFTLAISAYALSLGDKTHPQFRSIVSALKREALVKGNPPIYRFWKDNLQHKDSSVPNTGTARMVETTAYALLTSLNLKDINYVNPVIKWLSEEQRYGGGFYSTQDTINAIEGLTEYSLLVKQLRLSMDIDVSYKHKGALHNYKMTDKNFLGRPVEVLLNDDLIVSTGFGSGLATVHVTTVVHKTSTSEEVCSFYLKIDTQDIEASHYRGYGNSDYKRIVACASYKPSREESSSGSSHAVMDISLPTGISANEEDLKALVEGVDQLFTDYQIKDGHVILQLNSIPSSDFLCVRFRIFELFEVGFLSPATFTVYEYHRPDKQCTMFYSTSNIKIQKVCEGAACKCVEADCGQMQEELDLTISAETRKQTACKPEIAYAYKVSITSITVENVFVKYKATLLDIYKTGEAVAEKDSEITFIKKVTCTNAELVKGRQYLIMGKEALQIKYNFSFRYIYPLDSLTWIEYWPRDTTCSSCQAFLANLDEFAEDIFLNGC
experiment_summary: Human hemolysis assay (RBC lysis assay using complete human sera)
Format: cell-based
Design: with complete human sera (Complement Technology, Tyler Tex.) and polypeptides; tissue Complement Technology, Tyler Tex; host or cells: complete human serum
test_settings: inhibition of lysis of antibody-sensitized sheep erythrocytes, complete human sera
Starred links: 1 amine or outer side, 2 acyl side, 3 side chain; linkers in the order of their positions; H or OH if unused. Positions of bridges follow the written chain, without caps; N, C: chain ends. Non-standard residues stand in square brackets, D forms with d. Residues, ends and D or L forms follow the SMILES beside them. Trp(7-aza) = N[C@@H](Cc1c[nH]c2ncccc12)C(=O)O; mXylylene = c1cc(C[*:1])cc(C[*:2])c1; Phg = N[C@H](C(=O)O)c1ccccc1; Tle = CC(C)(C)[C@H](N)C(=O)O; Nva = CCC[C@H](N)C(=O)O
Recorded IC50 values for a group of compounds are listed next.

Some compounds with recorded IC50:
>  <compound>
CC(=O)N[C@H]1CSCc2cccc(c2)CSC[C@@H](C(=O)N[C@@H](CC(=O)O)C(=O)N[C@H](C(=O)N[C@@H](Cc2ccc(O)cc2)C(=O)N[C@@H](Cc2c[nH]c3ccccc23)C(=O)N[C@@H](CCC(=O)O)C(=O)N[C@@H](Cc2ccccc2)C(N)=O)C(C)(C)C)NC(=O)[C@H](Cc2ccccc2)NC(=O)[C@H](CCCNC(=N)N)NC(=O)[C@H](CCC(=O)O)NC(=O)[C@H](C(C)(C)C)NC1=O [Compound R3139] (Ac-C[Tle]ERFCD[Tle]YWEF-NH2; linker 1-6 via mXylylene)

>  <test_result>
0.0972 µM

$$$$
>  <compound>
CCC[C@H](NC(=O)[C@@H](NC(=O)[C@@H]1CCCN1C(=O)[C@H](Cc1ccc(O)cc1)NC(=O)[C@H](CCC(=O)O)NC(=O)[C@H](Cc1c[nH]c2ncccc12)NC(=O)[C@H](Cc1ccc(O)cc1)NC(=O)[C@@H](NC(C)=O)C(C)(C)C)c1ccccc1)C(N)=O [Compound R3028, Ac-Tbg-Y-azaTrp-E-Y-P-Phg-Nvl-NH2] (Ac-[Tle]Y[Trp(7-aza)]EYP[Phg][Nva]-NH2)

>  <test_result>
> 10 µM

$$$$

Lab note: next compound to report on.
Problem: Entry CCC[C@H](NC(=O)[C@@H](NC(=O)[C@@H]1CCCN1C(=O)[C@H](Cc1ccc(O)cc1)NC(=O)[C@H](CCC(=O)O)NC(=O)[C@@H](Cc1c[nH]c2ccccc12)NC(=O)[C@H](Cc1ccc(O)cc1)NC(=O)[C@@H](NC(=O)[C@H](CC(N)=O)NC(=O)[C@H](CCC(=O)O)NC(=O)[C@H](Cc1ccc(O)cc1)NC(C)=O)C(C)(C)C)c1ccccc1)C(N)=O , system C5 (Homo sapiens, UniProt P01031): what IC50 was measured?
Result: > 100 µM
